Recorded Emax, one value per entry.
Target: h5-HT2C receptor (CHO cells) (Homo sapiens, UniProt P28335)
Construct: expressed in transfected cells; host or cells: CHO cells
Sequence (P28335 33-458): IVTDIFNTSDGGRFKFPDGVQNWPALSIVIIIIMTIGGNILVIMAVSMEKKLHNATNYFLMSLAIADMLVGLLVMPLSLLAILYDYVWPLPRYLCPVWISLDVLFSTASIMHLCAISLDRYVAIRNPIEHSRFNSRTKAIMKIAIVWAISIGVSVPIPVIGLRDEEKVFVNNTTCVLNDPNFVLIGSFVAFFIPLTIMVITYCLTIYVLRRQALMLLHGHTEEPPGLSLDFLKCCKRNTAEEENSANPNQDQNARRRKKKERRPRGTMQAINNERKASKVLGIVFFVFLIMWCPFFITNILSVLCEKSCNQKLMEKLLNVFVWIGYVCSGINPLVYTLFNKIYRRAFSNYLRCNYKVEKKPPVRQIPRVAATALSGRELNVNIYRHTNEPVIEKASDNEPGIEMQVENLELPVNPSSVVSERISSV
Experiment: Functional activity, FLIPR calcium assay, h5-HT2C
Assay type: cell-based
Conditions: CHO, read-out: h5-HT2C Relative Efficacy
Counter-ions that a name gives are not always drawn.

- Molecule: "Clc1ccc2c(c1)N1CCNC[C@H]1C2 [Example 8, hydrochloride]"
  Reading Unit: "%"
  Emax: 87
- Molecule: "Brc1ccc2c(c1)N1CCNCC1C2 (racemic) [Example 4, hydrochloride]"
  Reading Unit: "%"
  Emax: 100
- Molecule: "Clc1ccc2c(n1)N1CCNCC1C2 (racemic) [Example 6]"
  Reading Unit: "%"
  Emax: 100
- Molecule: "Clc1ccc2c(c1)CC1CNCCN21 (racemic) [Example 2, hydrochloride]"
  Reading Unit: "%"
  Emax: 84
- Molecule: "Clc1ccc2c(c1)N1CCNC[C@@H]1C2 [Example 7, hydrochloride]"
  Reading Unit: "%"
  Emax: 86

====

Molecular target: h5-HT2C receptor (CHO cells) (Homo sapiens, UniProt P28335)
Construct: expressed in transfected cells; host or cells: CHO cells
Assay: Functional activity, FLIPR calcium assay, h5-HT2C
Assay type: cell-based
Conditions: CHO, read-out: h5-HT2C Relative Efficacy
Structures can show the parent of a compound that is named as a salt.
Each entry gets n if its Emax stays under 90%, and y if its Emax is 90% or above.

- Compound: "Cc1cc2c(cc1Cl)N1CCNCC1C2 (racemic) [Example 5, fumarate]"
  Label Value: "y"
- Compound: "Clc1cccc2c1CC1CNCCN21 (racemic) [Example 3, hydrochloride]"
  Label Value: "n"
- Compound: "CSc1ccc2c(c1)N1CCNCC1C2 (racemic) [Example 13, fumarate]"
  Label Value: "n"

====

Target: h5-HT2A receptor (CHO cells) (Homo sapiens)
Sequence (P28223 whole entry): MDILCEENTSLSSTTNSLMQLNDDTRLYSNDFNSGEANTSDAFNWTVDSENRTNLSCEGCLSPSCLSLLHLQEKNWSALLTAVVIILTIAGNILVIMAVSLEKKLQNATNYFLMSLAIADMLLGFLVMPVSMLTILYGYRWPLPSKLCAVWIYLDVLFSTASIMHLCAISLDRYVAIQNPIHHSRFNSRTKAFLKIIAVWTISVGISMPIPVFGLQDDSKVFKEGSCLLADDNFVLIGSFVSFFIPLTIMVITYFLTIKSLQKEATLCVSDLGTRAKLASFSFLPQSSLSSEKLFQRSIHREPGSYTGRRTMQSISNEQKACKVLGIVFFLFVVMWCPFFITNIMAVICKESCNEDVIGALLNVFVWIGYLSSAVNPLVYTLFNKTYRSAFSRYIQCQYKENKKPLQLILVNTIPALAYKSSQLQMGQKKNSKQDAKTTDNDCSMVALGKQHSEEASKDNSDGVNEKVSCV
Assay: Functional activity, FLIPR calcium assay, h5-HT2A
Counter-ions that a name gives are not always drawn.
Recorded EC50, one value per entry.

- Compound: "Fc1cc2c(cc1Cl)N1CCNCC1C2 (racemic)"
  Reading Unit: "µM"
  EC50: 0.106
- Compound: "Clc1ccc2c(c1)CC1CNCCN21 (racemic) [Example 2, hydrochloride]"
  Reading Unit: "µM"
  EC50: 0.667
- Compound: "Cc1cc2c(cc1Cl)N1CCNCC1C2 (racemic) [Example 5, fumarate]"
  Reading Unit: "µM"
  EC50: 0.11

====

Recorded Emax, one value per entry.
Target: h5-HT2C receptor (CHO cells) (Homo sapiens)
Construct: expressed in transfected cells; host or cells: CHO cells
Assay: Functional activity, FLIPR calcium assay, h5-HT2C
Format: cell-based
Settings: CHO, read-out: h5-HT2C Relative Efficacy
Procedure: The functional activity of compounds of formula (I) was assayed using a Fluorimetric Imaging Plate reader (FLIPR): CHO cells expressing either the h5-HT2C or h5-HT2A receptors were counted and plated into standard 96 well microtitre plates before the day of testing to give a confluent monolayer. […] The drug (dissolved in 50 μl of assay buffer) was added at a rate of 70 μl/sec to each well of the FLIPR 96 well plate during fluorescence measurements. […]
Structures can show the parent of a compound that is named as a salt.

- Molecule: "Clc1ccc2c(c1)N1CCNCC1C2 (racemic) [Example 1, hydrochloride]"
  Emax [%]: 91
- Molecule: "Fc1cc2c(cc1Cl)N1CCNCC1C2 (racemic) [Example 12]"
  Emax [%]: 92
- Molecule: "C[C@H]1CN2c3cc(Cl)ccc3C[C@@H]2CN1 [Example 11, hydrochloride]"
  Emax [%]: 92
